# System: CEM cells HIV-1 protection, formazan growth assay
# testName: NCI AIDS Antiviral Assay
pEC50: −log10 of the molar value.
measuredEndpoint: pEC50

For orientation, consider the following solved cases.
CCOC(=O)c1sc2nc(SC)nc3c2c1NCN3C
< 3.70
Cc1ccc(-n2nnc3c(NNc4ccccc4)n[nH]c(=O)c32)cc1
< 3.70
Cc1nc2c(nc1C)C(=O)C1=C(C2=O)C2C=CC1CC2
< 4.15

Q: Quick one: pEC50 for O=P1(C(c2ccccc2)c2ccccc2)OC2CC(Cl)CC(C2)O1 (stereo not given) ?
Ans: < 5.14

Q: Quick one: pEC50 for Nc1nc(-c2ccccc2)nc2oc(-c3cccs3)nc12 ?
Ans: < 3.70

Q: Quick one: pEC50 for O=C1[C@@H]2C3SC(c4cc5ccccc5cc43)[C@@H]2C(=O)N1c1ccccc1 ?
Ans: < 4.14

Q: Quick one: pEC50 for CCCCOC(=O)C(=O)/C(=C\n1c(=S)[nH]c2ccccc21)C(=O)C=C(C)C ?
Ans: < 3.70

====

# Tested on: CEM cells HIV-1 protection, formazan growth assay
# testName: NCI AIDS Antiviral Assay;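 active means compounds giving half or more protection of infected cells from virus-caused growth loss, again on retest; inactive means the rest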
Hi! Could you answer with just one of these? active, inactive

O=S(=O)(c1ccccc1)n1c(C(O)c2ccccc2)cc2ccccc21 (stereo unspecified)
inactive
O=C(O)c1cc(O)ccc1O
inactive
CNc1ccc(Cl)cc1S(=O)(=O)c1ccccc1
active
NNc1nnc(-c2nnc(NN)o2)o1
inactive
C/C=C1\[C@H]2C=C(C)C[C@@]1(N)c1ccc(=O)[nH]c1[C@@H]2O
inactive
CCOc1ccccc1/C=C1\NC(=O)NC1=O
inactive
COCC(C#N)NC1CC(OC2CC(O)(C(=O)CO)Cc3c(O)c4c(c(O)c32)C(=O)c2c(OC)cccc2C4=O)OC(C)C1O (stereo unspecified)
inactive
CSc1ccn(C2CC(F)C(CO)O2)c(=O)n1 (stereo unspecified)
active

Q: Returns: the outcome recorded for CS(=O)(=O)OCCN1CCN(C(=O)c2cccc3c(Nc4ccc(S(=O)(=O)N=C(N)N)cc4)c4ccccc4nc23)CC1 in this assay.
Ans: inactive

Q: Returns: the outcome recorded for OC(C#CC(O)(c1ccccc1)c1ccccc1)(c1ccccc1)c1ccccc1 in this assay.
Ans: inactive

Q: Returns: the outcome recorded for O=C(n1[nH]c(=O)n(-c2ccc([N+](=O)[O-])cc2)c1=O)C(Cl)(Cl)Cl in this assay.
Ans: inactive

====

# Tested on: CEM cells HIV-1 protection, formazan growth assay
# testName: NCI AIDS Antiviral Assay
# studyConditions: measured here: growth of uninfected CEM cells
pIC50: −log10 of the molar value.
Rule: pIC50 under 4 gives -1, otherwise 1.

// below: answered compounds
CC(C)(C)[C@H]1CCC2(OCCO2)[C@](O)(CCCO)C1
-1
COC(=O)[C@@H]1OC(C)(c2ccccc2)O[C@H]1C(=O)OC
-1
O=C(Nc1ccc(C(=O)Nc2ccc(C3=NCCCN3)cc2)cc1)Nc1ccc(C2=NCCCN2)cc1
1

Q: Does the reported pIC50 for [N-]=[N+]=Nc1cc(=O)[nH]nc1-c1ccccc1 fall at or above the 4 mark?
Ans: -1

Q: Does the reported pIC50 for C=C(C)[C@@]1(O)O[C@H]2C[C@@]3(C)OC(=CC3=O)/C(C)=C\[C@@H]3OC(=O)[C@@]1(C)[C@H]32 fall at or above the 4 mark?
Ans: 1

Q: Does the reported pIC50 for CCN(CC)c1ccc2c(c1)Oc1ccc(N(C(C)=O)c3ccccc3)cc1C21OC(=O)c2ccccc21 (stereo unspecified) fall at or above the 4 mark?
Ans: 1

Q: Does the reported pIC50 for CCOC(=O)/C(CCCC#N)=N/O fall at or above the 4 mark?
Ans: -1

Q: Does the reported pIC50 for CCCC1(CC(=O)O)OCCc2c1[nH]c1ccccc21 (stereo unspecified) fall at or above the 4 mark?
Ans: -1

Q: Does the reported pIC50 for Cc1ccc(NC2=N/C(=C/c3ccco3)C(Cl)=N2)cc1 fall at or above the 4 mark?
Ans: -1

====

# Test system: CEM cells HIV-1 protection, formazan growth assay
# testName: NCI AIDS Antiviral Assay
# studyConditions: measured here: growth of uninfected CEM cells
measuredEndpoint: pIC50
For clarity, pIC50 is expressed as the negative log10 of concentration in mol/L.

C=CCOc1ccc(/C(N=Nc2ccccc2)=N/NC(=O)c2ccccc2)cc1OC
3.97

Q: Quick one: pIC50 for CC(=O)Nc1ccc2cc3[nH]c4cc(NC(C)=O)ccc4c3nc2c1 ?
Ans: 4.75

Q: Quick one: pIC50 for COC(=O)C1Cc2ccc3c(c2C1=O)CCCC3 (stereo unspecified) ?
Ans: 3.73

Q: Quick one: pIC50 for O=C1OC(Cl)C(N=P(c2ccccc2)(c2ccccc2)c2ccccc2)=C1Cl (stereo unspecified) ?
Ans: 5.03

====

# Test system: CEM cells HIV-1 protection, formazan growth assay
# testName: NCI AIDS Antiviral Assay
# studyConditions: measured here: growth of uninfected CEM cells
measuredEndpoint: IC50 (µM)
Just the number in µM, nothing appended.

Q: Quick one: IC50 for COc1ccc(OC)c2c3c(ccc12)C(C)(c1ccccc1)OC3=O (stereo not given) ?
Ans: 89.1

Q: Quick one: IC50 for Cc1nn(-c2ccccc2)c2c1S(=O)(=O)c1ccccc1-2 ?
Ans: 69.2

Q: Quick one: IC50 for Nc1nc(C[P+](c2ccccc2)(c2ccccc2)c2ccccc2)c(CCCCc2ccccc2)c(=O)[nH]1 ?
Ans: 33.1

====

# Tested on: CEM cells HIV-1 protection, formazan growth assay
# testName: NCI AIDS Antiviral Assay;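 active means compounds giving half or more protection of infected cells from virus-caused growth loss, again on retest; inactive means the rest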
Hi! Could you answer with just one of these? label 1 for active, label 0 for inactive

// below: answered compounds
Cn1c(=O)cc(NCCc2ccccc2)[nH]c1=O
label 0
CCCCCCC(=O)N1SC(NC(=O)OC)=Nc2ccccc21
label 0
Nc1nc(=O)n(C2CCC(CO)O2)cc1F (stereo not drawn)
label 1
CC1=NNC(N)=N/C1=C\C(Sc1ccc(Cl)cc1)c1ccc(Cl)cc1Cl (stereo not drawn)
label 0
CCOC(=O)c1c(N)[nH]c(SSc2[nH]c(N)c(C(=O)OCC)c2C(=O)OCC)c1C(=O)OCC
label 0

Q: Returns: the outcome recorded for O=[N+]([O-])c1ccc(S(=O)(=O)N=Ic2ccccc2)cc1 in this assay.
Ans: label 0

Q: Returns: the outcome recorded for CSc1c(C#N)c(S)n(-c2ccc(Cl)cc2)c(=O)c1C#N in this assay.
Ans: label 0

Q: Returns: the outcome recorded for NC(=O)N/N=C1\CC2C3CC4C2C4C13 (stereo not drawn) in this assay.
Ans: label 0

Q: Returns: the outcome recorded for CCN(CC)CCNc1ccc(CO)c2oc3ccccc3c(=O)c12 in this assay.
Ans: label 0

Q: Returns: the outcome recorded for CC(=O)NCS(=O)(=O)O in this assay.
Ans: label 0

====

# System: CEM cells HIV-1 protection, formazan growth assay
# testName: NCI AIDS Antiviral Assay
# studyConditions: measured here: growth of uninfected CEM cells
Reported IC50 by item:

For orientation, consider the following solved cases.
Cn1nc(-c2ccccc2)c(C(=O)/C=C/c2ccc(F)cc2)c(N2CCOCC2)c1=O
> 87.1 µM
CC/C=C\C/C=C\C/C=C\CCCCCCCC(=O)OCC(O)CO (stereo unspecified)
> 28.2 µM

Q: Notebook: pull reported IC50 for CEM cells HIV-1 protection, formazan growth assay, entry Cc1ccc(C2NC(=O)N3C(c4ccc(C)cc4)NC(=O)N23)cc1 (stereo unspecified)
Ans: 30.2 µM

Q: Notebook: pull reported IC50 for CEM cells HIV-1 protection, formazan growth assay, entry O=C1C=C(Nc2ccc(S(=O)(=O)Nc3nccs3)cc2)c2ccccc2C1=O
Ans: 38.9 µM

Q: Notebook: pull reported IC50 for CEM cells HIV-1 protection, formazan growth assay, entry CC(C)(C)OC(=O)C1C(=O)C(C(=O)OC(C)(C)C)C2(C)C(C(=O)OC(C)(C)C)C(=O)C(C(=O)OC(C)(C)C)C12C (stereo unspecified)
Ans: 11.2 µM

Q: Notebook: pull reported IC50 for CEM cells HIV-1 protection, formazan growth assay, entry CS(=O)(=O)CCC(N)P(=O)(O)O (stereo unspecified)
Ans: > 200 µM

Q: Notebook: pull reported IC50 for CEM cells HIV-1 protection, formazan growth assay, entry CC1N=C(c2ccccc2)c2cc(Cl)ccc2NC1=O (stereo unspecified)
Ans: > 18.2 µM

====

# Test system: CEM cells HIV-1 protection, formazan growth assay
# testName: NCI AIDS Antiviral Assay;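 active = compounds giving half or more protection of infected cells from virus-caused growth loss, again on retest; inactive = the rest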
Hi! Could you answer with just one of these? active, inactive

Q: Returns: the outcome recorded for CC1C(c2ccc3c(c2)OCO3)c2cc3c(cc2OC1N1CCOCC1)OCO3 (stereo unspecified) in this assay.
Ans: inactive

Q: Returns: the outcome recorded for O=c1cc(NNc2ccc(F)cc2)[nH]c(=O)[nH]1 in this assay.
Ans: inactive

Q: Returns: the outcome recorded for C/C(=N\O)C(CN(C)C)C(c1ccccc1)c1c(O)c2ccccc2oc1=O (stereo unspecified) in this assay.
Ans: inactive
